meta.source: PubChem BioAssay (NCI)

# Protocol: NCI Yeast Anticancer Drug Screen. Data for the rad52 strain (AID 147);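 further: 0% = growth of vehicle-treated control cultures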
# Condition description: S. cerevisiae rad52 mutant growth inhibition; at 100.0 µM; stronger effect = higher value
The panel holds about 79,000 compounds, 15% with a hit somewhere; the sample as a whole holds those more often.
Think of 80% as a floor: if growth inhibition stands on it or above, it is class 1; beneath it, class 0.

> print(dat)
                                   compound  class.label
1                   Nc1nnc(N)n1-n1c(N)nnc1N      class 0
2  O=C1NC(=S)NC(=O)C1=Cc1ccc([N+](=O)[O-])o1      class 1
3  O=[N+]([O-])c1cc([As](Br)c2ccc(O)c([N+](=O)[O-])c2)ccc1O      class 1
4              O=C(O)CCCOc1cc(Cl)c(Cl)cc1Cl      class 0
5        Cc1c([N+](=O)[O-])oc2ccc3ccccc3c12      class 1
6  CCS(=O)(=O)[O][Sn]([CH2]C)([CH2]C)[O]S(=O)(=O)CC      class 0
7                     Oc1ccc2nc3ccccc3nc2c1      class 1
8  CCCCCCCCCCCCCCCCP(=O)(O)OCC(N)C(=O)O (stereo unspecified)      class 1
9      CC1(C)N=C(N)N=C(N)N1c1cccc(N)c1.[Sn]      class 0
